Attribution: paper PMC11273618

tested-system: r-Mal d 1.01 (recombinant Mal d 1.0108) (Malus domestica)
Construct: gene MALD1; 15N-labelled in M9 medium for HSQC NMR; one cysteine (Cys107)
Sequence (Q9SYW3 1-159): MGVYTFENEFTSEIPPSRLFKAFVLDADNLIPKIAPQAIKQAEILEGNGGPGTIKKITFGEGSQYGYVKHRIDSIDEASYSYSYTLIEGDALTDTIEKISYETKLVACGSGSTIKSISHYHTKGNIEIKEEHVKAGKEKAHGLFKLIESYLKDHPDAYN
test-name: isothermal titration calorimetry, independent model
test-conditions: 0.1 M sodium phosphate pH 7, 25 °C; 0.2 mM protein, 4 mM ligand injected; stoichiometry fixed at n = 1; weak nonspecific surface binding; unreliable
Recorded KD, one value per entry.
Give just the numeric value; µM need not be written.

Below, each entry is followed by its recorded KD result.
{"compound": "Oc1cc(O)c2c(c1)O[C@H](c1ccc(O)c(O)c1)[C@@H](O)C2 [CAT, (+)-catechin]", "KD / µM": 500}
{"compound": "Oc1cc(O)c2c(c1)O[C@H](c1ccc(O)c(O)c1)[C@H](O)[C@H]2c1c(O)cc(O)c2c1O[C@H](c1ccc(O)c(O)c1)[C@@H](O)C2", "KD / µM": 1200}
{"compound": "Oc1cc(O)c2c(c1)O[C@H](c1ccc(O)c(O)c1)[C@H](O)[C@H]2c1c(O)cc(O)c2c1O[C@H](c1ccc(O)c(O)c1)[C@H](O)C2", "KD / µM": 600}

# next compound below
[in] Entry Oc1cc(O)c2c(c1)O[C@H](c1ccc(O)c(O)c1)[C@H](O)C2 [EC, (−)-epicatechin] : reported KD = ?
[out] 1400
